study-target: ALCAT1 (Homo sapiens (Human), UniProt Q6UWP7)
protocol-notes: In vitro acyltransferase assay for ALCAT1 inhibitors
Format: biochemical
condition-details: 1 μM compound; in vitro enzymatic assay
Sequence (Q6UWP7 whole entry): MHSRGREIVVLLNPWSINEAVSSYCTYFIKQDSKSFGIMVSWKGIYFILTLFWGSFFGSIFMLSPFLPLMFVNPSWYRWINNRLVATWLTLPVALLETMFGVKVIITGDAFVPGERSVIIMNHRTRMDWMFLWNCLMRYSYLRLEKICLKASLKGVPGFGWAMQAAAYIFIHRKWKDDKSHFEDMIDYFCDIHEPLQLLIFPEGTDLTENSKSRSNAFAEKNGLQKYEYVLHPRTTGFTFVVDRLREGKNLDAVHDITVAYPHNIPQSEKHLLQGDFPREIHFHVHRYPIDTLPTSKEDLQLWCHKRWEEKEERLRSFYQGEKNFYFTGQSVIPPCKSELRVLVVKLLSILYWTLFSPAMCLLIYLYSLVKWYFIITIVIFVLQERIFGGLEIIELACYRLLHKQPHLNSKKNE
A collection of compounds and their measured % inh @ 1 μM

COc1ccc(Cl)cc1C(=O)Nc1cc(-c2nnc(-c3ccco3)o2)ccc1F = 100/100%
O=C(Nc1cc(Cl)ccc1F)c1cccc(-c2nnc(-c3ccco3)o2)c1 = 97/97%

Then there is this compound:
Endpoint output: % inh @ 1 μM of CCOc1ccc(C)cc1C(=O)Nc1cc(-c2nnc(-c3ccco3)o2)ccc1F . Value?
100/100%

---

study-target: ALCAT1 (Homo sapiens (Human), UniProt Q6UWP7)
protocol-notes: Cell-based assay for ALCAT inhibitor compounds (H9C2 cells)
condition-details: H9c2, 3 μM compound; H9C2 vector cell line and H9C2 with stable overexpression of ALCAT1
Sequence (Q6UWP7 whole entry, species assumed): as the sequence (Q6UWP7 whole entry) above
inhibition at 3 µM: recorded values
Give the quantity in %, number only.

O=C(Nc1cc(-c2nnc(-c3ccco3)o2)ccc1F)c1ccccc1OC(F)F = 20
O=C(Nc1cc(-c2nnc(-c3ccco3)o2)ccc1F)c1cc(Cl)ccc1OCC(F)F = 52
O=C(Nc1cc(-c2nnc(-c3ccco3)o2)ccc1F)c1cc(F)ccc1OCCF = 4
CCOc1ccc(CC)cc1C(=O)Nc1cccc(-c2nnc(-c3ccco3)o2)c1 = 22

What reported inhibition at 3 µM corresponds to Cc1ccc(OCCF)c(C(=O)Nc2cc(-c3nnc(-c4ccco4)o3)ccc2F)c1 on ALCAT1 (Homo sapiens (Human), UniProt Q6UWP7)?
75

Now give it for COc1ccc(C(F)(F)F)cc1C(=O)Nc1cc(-c2nnc(-c3ccco3)o2)ccc1F too.
45

Param item: O=C(Nc1cc(-c2nnc(-c3ccco3)o2)ccc1F)c1ccccc1OCC(F)(F)F
19

Thanks! And CCOc1ccc(CC)cc1C(=O)N(c1cc(-c2nnc(-c3ccco3)o2)ccc1F)P(=O)(O)O ?
75

Queued: CCOc1ccc(Cl)cc1C(=O)Nc1cc(-c2nnc(-c3ccco3)o2)ccc1F
45

What do you get for CCCOc1ccc(C)cc1C(=O)Nc1cc(-c2nnc(-c3ccco3)o2)ccc1F ?
36

// query: CCOc1ccc(Br)cc1C(=O)Nc1cccc(-c2nnc(-c3ccco3)o2)c1
9

// query: O=C(Nc1cc(-c2nnc(-c3ccco3)o2)ccc1F)c1ccccc1OCC(F)F
36
